# growth per record follows
System: SK-MEL-2 melanoma
assay_text: NCI-60 one-dose screen, 48 h (100 = growth as untreated, 0 = no growth, -100 = all killed)
test_settings: 10 µM unless noted
Procedure: Growth inhibition of the SK-MEL-2 human tumor cell line is measured as a screen for anti-cancer activity. Cells are grown in 96 well plates and exposed to the test compound for 48 hours. Compounds are tested at a single concentration, which is 10^-5 M for most compounds. The reported endpoint is percent growth (GI% or GIPRCNT), where numbers from 0 - 100% represent growth inhibition, and numbers from -100% - 0 represent cell death. For example, a value of 40 represents 60% growth inhibition. […]
Compounds without any hit were thinned out: in the full panel of roughly 83,000, 20% have a hit.
measured_parameter: growth (%)

COc1ccc(C(=O)c2cc(C)c(OC)c(C)c2)c(OC)c1N(C(=O)CCl)C(=O)CCl : 27.8
Cc1cc2nc3c4cccc(O)c4n(CCN(C)C)c3nc2cc1C : 54.2
C=C1C(=O)O[C@H]2[C@H]1CC/C(COC(=O)NCc1c[nH]c3ccc(Cl)cc13)=C\CC[C@@]1(C)O[C@@H]21 : -6.51
CCOC(=O)c1cc(C#N)n2ccc3ccccc3c12 : 106
COc1ccc2[nH]c(=O)c(CN3CCN(c4nccc(-c5ccc(Cl)cc5)n4)CC3)cc2c1 : 93.1
O=C(CCN1CCCC1)Nc1ccc2c(Nc3ccc(Br)cc3)c3ccccc3nc2c1 : 97.1
CC(=O)Nc1ccc(-c2ccc3c(c2)NC(=O)/C3=C\c2ccc[nH]2)cc1 : 96
Cc1ccc(NC(=O)c2cc(-c3nc4ccccc4s3)c(=O)n(NS(=O)(=O)c3ccc(Cl)cc3)c2N)cc1 : 103
COc1cc2nc(-c3ccc(C(F)(F)F)cc3)cc(OCCCN3CCCC3)c2cc1OC : 49.3
